Consider the following pIC50 data for Cathepsin B (Homo sapiens, UniProt P07858), collected from several reports.
pIC50: −log10 of the molar value.
parameter: pIC50

# molecule, system, pIC50
rows = [
    ("CCCC[C@H](NC(=O)OCC1(Cc2ccccc2)CCC1)C(=O)C(=O)N[C@H](C)c1ccccc1", "Cathepsin B (Homo sapiens, UniProt P07858)", 5.44),
]

A = CC(=O)N[C@@H](CCc1ccccc1)C(=O)N[C@@H](CC(C)C)C(=O)N[C@@H](C)C(=O)N[C@H](/C=C/S(C)(=O)=O)CC(C)C
B = N#CCNC(=O)[C@H](Cc1cccc(Cl)c1)NC(=O)c1ccccc1
Identify the item whose pIC50 is the smaller number: A or B When you have decided, please share the label of that item.
B
